Below is a list of entries, each paired with its recorded Inhibition of acute inflammation % inh value.
# System: carrageenan-induced rat paw oedema
# measurement_notes: carrageenan-induced rat paw oedema assay
# Type: in vivo, Sprague–Dawley rats
# condition_context: 3 h; dose equivalent to 70 mg kg-1 ibuprofen
Response body: numeric value in %, unit text excluded.

>>> numeric_readout("Cc1cc(C)c2c(N)c(C(=O)NN=Cc3ccccc3)sc2n1")
71.2

Ask | Inhibition of acute inflammation % inh lookup needed for CSc1nc(C)cc(C)c1C#N , thanks.
Reply | 12.438

Ask | Please look up its Inhibition of acute inflammation % inh: Cc1cc(C)c2c(N)c(C(=O)NN)sc2n1
Reply | 38.84

Ask | For CC1=CC(C)=C(C#N)C2SC(=Cc3ccccc3)C(=O)N12 (racemic) , what is its reported Inhibition of acute inflammation % inh?
Reply | 16.605

Ask | Which Inhibition of acute inflammation % inh value belongs to COc1ccc(/C=N/n2nnc3c(sc4nc(C)cc(C)c43)c2=O)cc1 ?
Reply | 41.78

Ask | What value of Inhibition of acute inflammation % inh has been recorded for this entry: Cc1cc(C)c2c(n1)sc1c(=O)n(N=Cc3ccccc3)nnc12
Reply | 30.75

Ask | Return reported Inhibition of acute inflammation % inh; argument: CCOC(=O)c1sc2nc(C)cc(C)c2c1N
Reply | 28.921

Ask | Find the recorded Inhibition of acute inflammation % inh belonging to Cc1cc(C)c2c(N)c(C(=O)N/N=C/c3ccc(Cl)cc3)sc2n1 and report it.
Reply | 54.75

Ask | Which Inhibition of acute inflammation % inh value is on record for Cc1cc(C)c(C#N)c(=S)[nH]1 ?
Reply | 38.725

Ask | Bench note: what Inhibition of acute inflammation % inh did CC1=CC(C)=C(C#N)C2SCN(Cc3ccccc3)CN12 (racemic) show?
Reply | 7.39

Ask | // lookup Inhibition of acute inflammation % inh for COc1ccc(C=NNC(=O)c2sc3nc(C)cc(C)c3c2N)cc1
Reply | 58.3

Ask | Requested field: Inhibition of acute inflammation % inh. Item: Cc1cc(C)c2c(n1)sc1c(=O)n(/N=C/c3ccc(Cl)cc3)nnc12
Reply | 56.54

Ask | Record request: Inhibition of acute inflammation % inh value, item CC(C)Cc1ccc(C(C)C(=O)O)cc1 (centres unmarked) [Ibuprofen, reference compound]
Reply | 60.66

Ask | Item under review: CC1=CC(C)=C(C#N)C2SCN(c3ccccc3)CN12 (racemic) . Reported Inhibition of acute inflammation % inh?
Reply | 38.174

---

# Test system: carrageenan-induced rat paw oedema
# measurement_notes: carrageenan-induced rat paw oedema assay
# Type: in vivo, Sprague–Dawley rats
# condition_context: 2 h after carrageenan; dose equivalent to 70 mg kg-1 ibuprofen, DMSO
quantity_measured: Swel (mean difference in rat paw volume between right and left paw)

// worked examples, Swel (mean difference in rat paw volume between right and left paw) included
>>> result("Cc1cc(C)c2c(N)c(C(=O)NN=Cc3ccccc3)sc2n1 [Compound 7a]")
0.15
>>> result("CC1=CC(C)=C(C#N)C2SC(=Cc3ccccc3)C(=O)N12 (racemic) [Compound 2a]")
0.595
>>> result("CSc1nc(C)cc(C)c1C#N [Compound 3a]")
0.363

Ask | // lookup Swel (mean difference in rat paw volume between right and left paw) for Cc1cc(C)c(C#N)c(=S)[nH]1 [Compound 1]
Reply | 0.353

Ask | Entry CC1=CC(C)=C(C#N)C2SCN(Cc3ccccc3)CN12 (racemic) [Compound 4c] : reported Swel (mean difference in rat paw volume between right and left paw) = ?
Reply | 0.22

Ask | Any idea what its Swel (mean difference in rat paw volume between right and left paw) is? The compound is COc1ccc(/C=N/n2nnc3c(sc4nc(C)cc(C)c43)c2=O)cc1 [Compound 8c]
Reply | 0.17

Ask | What value of Swel (mean difference in rat paw volume between right and left paw) has been reported for the following compound? CC1=CC(C)=C(C#N)C2SCN(c3ccccc3)CN12 (racemic) [Compound 4a]
Reply | 0.407

Ask | Would you mind telling me what Swel (mean difference in rat paw volume between right and left paw) value was observed for Cc1cc(C)c2c(N)c(C(=O)N/N=C/c3ccc(Cl)cc3)sc2n1 [Compound 7b] ?
Reply | 0.16

Ask | Can you look up the measured Swel (mean difference in rat paw volume between right and left paw) of Cc1cc(C)c2c(n1)sc1c(=O)n(/N=C/c3ccc(Cl)cc3)nnc12 [Compound 8b] for me?
Reply | 0.27
